assay_system: human muscarinic M3 receptor (Homo sapiens (Human), UniProt P20309)
Sequence (P20309 whole entry): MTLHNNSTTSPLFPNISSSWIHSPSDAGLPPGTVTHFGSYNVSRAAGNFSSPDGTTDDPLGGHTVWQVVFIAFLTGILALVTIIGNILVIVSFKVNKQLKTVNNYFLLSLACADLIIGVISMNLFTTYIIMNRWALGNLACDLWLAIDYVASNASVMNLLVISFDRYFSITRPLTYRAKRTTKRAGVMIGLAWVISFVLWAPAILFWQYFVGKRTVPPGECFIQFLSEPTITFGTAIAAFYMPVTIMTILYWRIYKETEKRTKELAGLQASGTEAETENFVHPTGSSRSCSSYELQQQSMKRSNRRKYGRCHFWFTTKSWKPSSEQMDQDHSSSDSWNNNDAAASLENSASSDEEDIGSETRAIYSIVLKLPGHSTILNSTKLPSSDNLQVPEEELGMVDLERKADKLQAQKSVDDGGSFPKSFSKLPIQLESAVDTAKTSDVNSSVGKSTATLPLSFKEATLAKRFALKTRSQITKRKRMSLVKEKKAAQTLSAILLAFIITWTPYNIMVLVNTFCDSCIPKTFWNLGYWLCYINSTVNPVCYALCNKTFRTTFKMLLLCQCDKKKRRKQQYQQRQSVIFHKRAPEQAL
test: Antagonism assay on human muscarinic M3 receptor (carbachol-induced intracellular calcium, FLIPR Calcium 5, transfected Cos-7 cells)
Assay type: cell-based
assay_context: functional inhibitory constant; carbachol-induced intracellular calcium in Cos-7 cells transfected with human M3 receptor
pKi: −log10 of the molar value.
Lab note: anything with pKi at or over 9 counts as T; the rest go in F.

CN1CCCC1CCOC(=O)Nc1ccccc1-c1ccccc1F (stereo not shown) [Example 34] ... F
CN1CCCC1CCOC(=O)Nc1ccccc1-c1cccc(Cl)c1 (stereo not shown) [Example 8] ... F
CN1CC[C@@H](COC(=O)Nc2ccccc2-c2ccc(F)cc2F)C1 [Example 157] ... F

Check the entry CN1CCC[C@H]1COC(=O)Nc1cc(F)c(F)cc1-c1ccc(F)c(Cl)c1 [Example 181] : does pKi equal or exceed 9?
T

Entry CN1CC[C@@H](COC(=O)Nc2ccccc2-c2ccc(F)c(Cl)c2)C1 [Example 136] : is its pKi no less than 9?
T

Can CN1CC[C@@H](COC(=O)Nc2ccccc2-c2ccccc2)C1 [Example 89] be said to have pKi at or above 9?
T

Threshold query (pKi >= 9) on CN1CCCC1CCOC(=O)Nc1ccccc1-c1cccc(F)c1 (stereo not shown) [Example 4]
F

Determine whether this molecule has pKi no lower than 9: CN1CC[C@@H](COC(=O)Nc2ccccc2-c2cc(Cl)ccc2F)C1 [Example 159]
T

###

assay_system: human muscarinic M3 receptor (Homo sapiens (Human))
test: Binding assay on human muscarinic M3 receptor ([3H]-methyl scopolamine displacement)
assay_context: membranes overexpressing human M3 receptor, Ki from IC50 by Cheng-Prusoff, read-out: Binding Affinity to M3 Receptor, Ki
pKi values by entry
Scale for pKi: -log10 of concentration given in mol/L; no unit attached.

Recorded results for 3 compounds are shown here.
CN1CCC[C@H]1COC(=O)Nc1ccccc1-c1ccc(F)c(F)c1 [Example 162] ... 8.27
CN1CC[C@H](COC(=O)Nc2ccc(F)cc2-c2ccc(F)cc2)C1 [Example 124] ... 8.09
CN1CCC[C@H]1COC(=O)Nc1ccc(F)cc1-c1cccc(O)c1 [Example 179] ... 6.62

For the compound CN1CCCC1CCOC(=O)Nc1ccc(C(F)(F)F)cc1-c1cccc(Cl)c1 (centres unmarked) [Example 51] , report pKi.
6.99

###

# maps each entry to its pKi
assay_system: human muscarinic M3 receptor (Homo sapiens (Human))
test: Binding assay on human muscarinic M3 receptor ([3H]-methyl scopolamine displacement)
assay_context: membranes overexpressing human M3 receptor, Ki from IC50 by Cheng-Prusoff, read-out: Binding Affinity to M3 Receptor, Ki
Experimental: [Experimental Example 1] Binding Assay on Human Muscarinic M3 Receptor Cell membrane proteins (Perkin Elmer) wherein human muscarinic M3 receptor was overexpressed, [^3H]-methyl scopolamine and test compounds in various concentration were cultured in 0.2 ml of Tris-HCl buffer at 25° C. for 120 minutes. […] The radioactivity of [^3H]-methyl scopolamine adsorbed on the filter was measured by a liquid scintillation counter. Non-specific binding was evaluated under existence of 5 μM of atropine. […]
pKi is a log-scale quantity: -log10 of the concentration expressed in molar.

These solved cases illustrate the format of a correct answer.
Cc1ccc(NC(=O)OC[C@@H]2CCCN2C)c(-c2ccccc2)c1 ... 8.14
CN1CC[C@H](COC(=O)Nc2ccc(F)cc2-c2cc(F)cc(F)c2)C1 ... 7.76

Please turn your attention to the following entry.
Specify measured pKi for CN1CCCC1CCOC(=O)Nc1ccccc1-c1ccc(Cl)cc1 (centres unmarked) .
7.50

###

assay_system: UniProt:P20309
test: Binding assay on human muscarinic M3 receptor ([3H]-methyl scopolamine displacement)
assay_context: membranes overexpressing human M3 receptor, Ki from IC50 by Cheng-Prusoff, read-out: Binding Affinity to M3 Receptor, Ki
pKi: −log10 of the molar value.
Label Satisfied when pKi >= 8; otherwise Not satisfied.

See these solved cases before continuing.
O=C(Nc1ccccc1-c1cc(F)cc(F)c1)OC[C@@H]1CCNC1 ... Not satisfied
CN1CC[C@@H](COC(=O)Nc2ccccc2-c2ccc(F)cc2F)C1 ... Not satisfied
CN1CCC[C@H]1COC(=O)Nc1ccc(F)cc1-c1cc(F)c(F)cc1F ... Not satisfied
CN1CCC[C@H]1COC(=O)Nc1ccc(F)cc1-c1ccc(Cl)cc1Cl ... Not satisfied
CN1CC[C@H](COC(=O)Nc2ccccc2-c2cccc(Cl)c2)C1 ... Satisfied

# input for lookup
Decide: is the reported value of pKi for CN1CCCC1CCOC(=O)Nc1cc(F)ccc1-c1cccc(F)c1 (stereo not drawn) equal to or greater than 8?
Not satisfied

###

assay_system: UniProt P20309
test: Antagonism assay on human muscarinic M3 receptor (carbachol-induced intracellular calcium, FLIPR Calcium 5, transfected Cos-7 cells)
Assay type: cell-based
assay_context: functional inhibitory constant; carbachol-induced intracellular calcium in Cos-7 cells transfected with human M3 receptor
Parameter pKi: see the listing below.
Convention used: pKi is expressed as -log10 of the molar concentration.

Examples with their reported pKi follow.
CN1CCC[C@H]1COC(=O)Nc1ccccc1-c1cc(F)cc(Cl)c1 [Example 148] ... 8.65
CN1CCC[C@H]1COC(=O)Nc1ccccc1-c1ccc(F)c(Cl)c1 [Example 149] ... 10.00
CN1CC[C@H](COC(=O)Nc2ccc(F)cc2-c2ccc(F)cc2)C1 [Example 124] ... 8.54
CN1CC[C@@H](COC(=O)Nc2ccccc2-c2cc(F)cc(F)c2)C1 [Example 91] ... 8.88
Cc1ccc(NC(=O)OC[C@@H]2CCCN2C)c(-c2cccc(F)c2)c1 [Example 207] ... 8.45

# lookup: UniProt P20309 pKi, key = Cc1cccc(-c2ccccc2NC(=O)OC[C@@H]2CCCN2C)c1 [Example 199]
9.59

Lab note: record pKi of CN1CCCC1CCOC(=O)Nc1ccccc1-c1cc(F)cc(F)c1 (stereo not drawn) [Example 2] tested on UniProt P20309.
8.22

Give pKi for Cc1cccc(-c2ccccc2NC(=O)OC[C@@H]2CCN(C)C2)c1 [Example 100] tested on UniProt P20309.
9.19

# assay system UniProt P20309: give pKi of COc1ccc(NC(=O)OC[C@@H]2CCCN2C)c(-c2cc(Cl)cc(Cl)c2)c1 [Example 226]
8.30

###

assay_system: human muscarinic M3 receptor (Homo sapiens (Human), UniProt P20309)
test: Binding assay on human muscarinic M3 receptor ([3H]-methyl scopolamine displacement)
assay_context: membranes overexpressing human M3 receptor, Ki from IC50 by Cheng-Prusoff, read-out: Binding Affinity to M3 Receptor, Ki
experimental_readout: Ki (nM)
Number in nM, nothing else.

Known results for compounds:
CN1CC[C@H](COC(=O)Nc2ccccc2-c2ccccc2)C1 [Example 90] ... 1.97
CN1CC[C@@H](COC(=O)Nc2ccc(F)cc2-c2cc(F)cc(Cl)c2)C1 [Example 142] ... 4.88
CCN1CC[C@@H](COC(=O)Nc2ccc(F)cc2-c2ccc(F)c(Cl)c2)C1 [Example 196] ... 7.67

Given CCOc1cccc(-c2ccccc2NC(=O)OCCC2CCCN2C)c1 (stereo not drawn) [Example 16] , respond with its Ki.
1060

Please supply the value of reported Ki for the item CN1CCCC1CCOC(=O)Nc1ccc(C(F)(F)F)cc1-c1ccccc1 (stereo not drawn) [Example 47]
136

Query Ki for CN1CCCC1CCOC(=O)Nc1ccccc1-c1ccc(OC(F)(F)F)cc1 (stereo not drawn) [Example 10]
401

State its Ki: CN1CC[C@@H](COC(=O)Nc2ccccc2-c2cc(F)cc(F)c2)C1 [Example 91]
4.5

Tell us which Ki value is on record for CN1CCC[C@H]1COC(=O)Nc1ccc(F)cc1-c1ccc(F)c(Cl)c1 [Example 211]
9.91

###

assay_system: human muscarinic M3 receptor (Homo sapiens (Human))
test: Binding assay on human muscarinic M3 receptor ([3H]-methyl scopolamine displacement)
assay_context: membranes overexpressing human M3 receptor, Ki from IC50 by Cheng-Prusoff, read-out: Binding Affinity to M3 Receptor, Ki
Please respond with Yes when measured Ki is strictly beneath 10 nM, and with No in all other cases.

Please review the entries below; each comes with its answer.
CN1CCC[C@H]1COC(=O)Nc1ccccc1-c1ccccc1F [Example 187] ... No
CN1CCCC1CCOC(=O)Nc1ccccc1-c1cc(F)cc(F)c1 (stereo not shown) [Example 2] ... Yes
CN1CCC[C@H]1COC(=O)Nc1ccc(F)cc1-c1ccc(C(F)(F)F)cc1C(F)(F)F [Example 218] ... No

Bench note: check whether O=C(Nc1ccccc1-c1cc(F)cc(F)c1)OC[C@H]1CCNC1 [Example 81] shows Ki below 10 nM
No

Ki strictly < 10 nM for this compound? CN1CC[C@@H](COC(=O)Nc2ccccc2-c2ccc(Cl)c(Cl)c2)C1 [Example 130]
Yes

Determine if CN1CCCC1CCOC(=O)Nc1ccc(F)cc1-c1cccc(Cl)c1 (stereo not shown) [Example 17] shows Ki strictly lower than 10 nM.
Yes

Lab note: Ki threshold 10 nM. Does this compound come in strictly under it? Cc1cccc(-c2cc(F)ccc2NC(=O)OC[C@H]2CCCN2C)c1 [Example 111]
No

Could you please tell me whether Ki recorded for CN1CCC[C@H]1COC(=O)Nc1ccc(F)cc1-c1ccccc1 [Example 200] is less than 10 nM?
Yes

Is the reported Ki for CN1CCC[C@H]1COC(=O)Nc1ccccc1-c1ccc(F)cc1 [Example 198] strictly below 10 nM?
Yes
